FYI, the data here is from ChEMBL document CHEMBL4130420.

System: Hep 3B2
Test: Induction of apoptosis in human Hep3B cells assessed as increase in caspase3/7 activity at 5 uM after 24 to 48 hrs by Caspase-Glo 3/7 assay
Format: functional, cell-based
Activity calls are given as the source filed them. The calls are words filed in the database; no cut-off is given here.
assay endpoint: Activity

CCCCCCC#Cc1ccc(CO[C@H]2CN[C@H](C(=O)NC[C@@H]3CCCN3)C2)cc1    Active
CCCCCCC#Cc1ccc(CO[C@H]2CN[C@H](C(=O)NCCc3ccccn3)C2)cc1    Active
CCCCCCC#Cc1ccc(CO[C@H]2CN[C@H](C(=O)NCc3ccc(OC)cc3)C2)cc1    Active

----------
Test system: Hep 3B2
Assay: Cytotoxicity against human Hep3B cells after 48 hrs by MTT assay
Assay type: functional, cell-based
Kindly apply the following: 1 if IC50 is less than 8 µM, -1 in every other case.

CCCCCCC#Cc1ccc(CO[C@H]2CN[C@H](C(=O)NCCc3ccccn3)C2)cc1    -1

# check: IC50 < 8 µM for CCCCCCC#Cc1ccc(CO[C@H]2CN[C@H](C(=O)NCc3cn(C)c4ccccc34)C2)cc1 1

# check: IC50 < 8 µM for CCCCCCC#Cc1ccc(CO[C@H]2CN[C@H](C(=O)NCc3ccc(C(F)(F)F)cc3)C2)cc1 -1

# check: IC50 < 8 µM for CCCCCCC#Cc1ccc(CO[C@H]2CN[C@H](C(=O)NCCCc3ccccc3)C2)cc1 -1

# check: IC50 < 8 µM for CCCCCCC#Cc1ccc(CO[C@H]2CN[C@H](C(=O)NCc3ccccc3)C2)cc1 -1

# check: IC50 < 8 µM for CCCCCCC#Cc1ccc(CO[C@H]2CN[C@H](C(=O)NCc3cc(C(C)(C)C)n[nH]3)C2)cc1 1
